- experimental system: calcium channel (α1H) (Homo sapiens, UniProt O95180)
- Construct: expressed in transfected cells; host or cells: Xenopus oocytes
- Sequence (O95180 whole entry): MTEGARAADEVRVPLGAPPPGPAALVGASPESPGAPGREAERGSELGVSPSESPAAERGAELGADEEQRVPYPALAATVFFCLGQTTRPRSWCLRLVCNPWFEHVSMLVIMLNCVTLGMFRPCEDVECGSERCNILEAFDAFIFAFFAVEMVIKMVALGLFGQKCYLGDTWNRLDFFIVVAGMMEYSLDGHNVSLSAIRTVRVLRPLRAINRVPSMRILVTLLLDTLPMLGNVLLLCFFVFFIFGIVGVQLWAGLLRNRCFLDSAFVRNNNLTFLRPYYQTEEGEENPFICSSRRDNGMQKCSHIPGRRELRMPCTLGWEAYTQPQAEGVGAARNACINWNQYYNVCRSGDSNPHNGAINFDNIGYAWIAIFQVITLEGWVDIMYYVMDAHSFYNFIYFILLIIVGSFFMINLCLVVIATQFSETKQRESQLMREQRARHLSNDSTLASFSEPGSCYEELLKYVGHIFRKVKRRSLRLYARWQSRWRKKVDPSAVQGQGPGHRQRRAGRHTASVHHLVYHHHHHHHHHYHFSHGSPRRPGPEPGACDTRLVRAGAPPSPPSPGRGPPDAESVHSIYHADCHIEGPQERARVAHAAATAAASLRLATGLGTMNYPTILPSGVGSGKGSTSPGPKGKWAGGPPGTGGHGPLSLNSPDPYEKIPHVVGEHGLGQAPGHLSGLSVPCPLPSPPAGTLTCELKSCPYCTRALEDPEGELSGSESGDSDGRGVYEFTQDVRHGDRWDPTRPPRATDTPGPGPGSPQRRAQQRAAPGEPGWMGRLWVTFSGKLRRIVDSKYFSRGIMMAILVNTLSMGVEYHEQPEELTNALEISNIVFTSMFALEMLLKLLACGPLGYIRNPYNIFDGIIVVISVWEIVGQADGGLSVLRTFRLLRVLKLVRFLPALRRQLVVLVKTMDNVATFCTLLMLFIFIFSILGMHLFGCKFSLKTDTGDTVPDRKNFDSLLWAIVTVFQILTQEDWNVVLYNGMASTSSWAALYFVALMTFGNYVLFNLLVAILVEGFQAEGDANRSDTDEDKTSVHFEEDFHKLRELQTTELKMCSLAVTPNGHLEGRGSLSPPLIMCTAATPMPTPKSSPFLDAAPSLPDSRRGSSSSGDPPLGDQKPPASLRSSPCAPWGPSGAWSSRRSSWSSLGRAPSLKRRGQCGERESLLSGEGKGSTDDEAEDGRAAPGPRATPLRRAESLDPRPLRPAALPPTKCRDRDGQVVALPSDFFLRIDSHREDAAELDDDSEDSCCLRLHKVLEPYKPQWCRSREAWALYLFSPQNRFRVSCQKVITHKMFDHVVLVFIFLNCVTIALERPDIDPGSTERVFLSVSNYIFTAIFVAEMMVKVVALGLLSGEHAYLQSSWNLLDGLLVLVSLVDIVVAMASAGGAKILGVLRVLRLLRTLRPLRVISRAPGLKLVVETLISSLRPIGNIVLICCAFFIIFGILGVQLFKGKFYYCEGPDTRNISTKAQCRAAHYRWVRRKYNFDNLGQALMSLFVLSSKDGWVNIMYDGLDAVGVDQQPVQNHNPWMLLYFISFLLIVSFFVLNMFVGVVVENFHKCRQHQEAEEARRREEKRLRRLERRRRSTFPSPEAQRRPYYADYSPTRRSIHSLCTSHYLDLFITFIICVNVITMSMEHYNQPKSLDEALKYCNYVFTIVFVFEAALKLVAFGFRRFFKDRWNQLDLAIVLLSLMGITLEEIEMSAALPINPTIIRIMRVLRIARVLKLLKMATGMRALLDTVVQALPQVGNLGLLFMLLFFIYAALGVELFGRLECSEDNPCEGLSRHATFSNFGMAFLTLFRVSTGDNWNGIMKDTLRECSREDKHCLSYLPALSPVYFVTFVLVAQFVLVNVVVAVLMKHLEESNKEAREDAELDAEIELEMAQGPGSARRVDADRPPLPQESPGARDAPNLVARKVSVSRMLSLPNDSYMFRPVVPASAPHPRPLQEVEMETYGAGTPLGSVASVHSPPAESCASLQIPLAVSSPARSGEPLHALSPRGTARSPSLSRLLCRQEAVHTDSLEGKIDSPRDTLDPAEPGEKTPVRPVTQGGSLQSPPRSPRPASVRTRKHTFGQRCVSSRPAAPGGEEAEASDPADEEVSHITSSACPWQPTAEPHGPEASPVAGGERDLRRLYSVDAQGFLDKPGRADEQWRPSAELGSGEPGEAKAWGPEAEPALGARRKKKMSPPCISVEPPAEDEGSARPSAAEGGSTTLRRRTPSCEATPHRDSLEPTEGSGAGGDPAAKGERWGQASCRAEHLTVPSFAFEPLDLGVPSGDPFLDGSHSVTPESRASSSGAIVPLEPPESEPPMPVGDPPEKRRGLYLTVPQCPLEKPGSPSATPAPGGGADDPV
- assay summary: Inhibition of calcium channel (α1H) expressed in Xenopus oocytes (first-step screen)
- Assay type: cell-based
- applied conditions: read-out: % Inhibition in oocyte (100 μM)
- Procedure: In order to evaluate the pharmaceutical effects induced by the compounds of the present invention, the inhibitory effects were examined according to the following procedure. As the first step, those that show more than 50% of inhibition to the calcium channel (α1H) expressed in Xenopus oocytes were screened. For the second step, α1G Ca^2+ channel activities expressed in HEK 293 cells were measured to determine the effective inhibition concentration IC50.
property: inhibition at 100 µM (%)
Numbers only, in %.

Look up inhibition at 100 µM for the entries below, preserving their order.
1. CC(C)Cc1cc(CNCCN2CCN(c3ccc([N+](=O)[O-])cc3)CC2)nn1C(C)(C)C
2. CCCc1cc(CNCCN2CCN(c3ccccc3)CC2)nn1-c1ccccc1

1: 56.4; 2: 80.1

Look up inhibition at 100 µM for the entries below, preserving their order.
1. CCCc1cc(CNCCN2CCN(c3ccc(OC)cc3)CC2)nn1-c1ccccc1
2. CCCc1cc(CNCCN2CCN(C(c3ccccc3)c3ccccc3)CC2)nn1-c1ccccc1
3. CCCc1cc(CNCCN2CCN(c3ccccc3F)CC2)nn1-c1ccccc1
4. CC(C)Cc1cc(CNCCN2CCN(c3ccc([N+](=O)[O-])cc3)CC2)nn1-c1ccccc1
5. CCCc1cc(CNCCN2CCN(c3ccc([N+](=O)[O-])cc3)CC2)nn1-c1ccccc1
6. CC(C)Cc1cc(CNCCN2CCN(C(c3ccccc3)c3ccccc3)CC2)nn1C(C)(C)C
7. Cc1cccc(N2CCN(CCNCc3cc(CC(C)C)n(-c4ccccc4)n3)CC2)c1C

1. 67.8
2. 97.8
3. 54.9
4. 74.4
5. 51.3
6. 40.4
7. 92

What measured inhibition at 100 µM goes with CCCc1cc(CNCCN2CCN(C(c3ccccc3)c3ccc(Cl)cc3)CC2)nn1-c1ccccc1 (stereo not shown) ?
92.9

====

- experimental system: α1G T-type Ca^2+ channel (Homo sapiens, UniProt O43497)
- Sequence (O43497 whole entry): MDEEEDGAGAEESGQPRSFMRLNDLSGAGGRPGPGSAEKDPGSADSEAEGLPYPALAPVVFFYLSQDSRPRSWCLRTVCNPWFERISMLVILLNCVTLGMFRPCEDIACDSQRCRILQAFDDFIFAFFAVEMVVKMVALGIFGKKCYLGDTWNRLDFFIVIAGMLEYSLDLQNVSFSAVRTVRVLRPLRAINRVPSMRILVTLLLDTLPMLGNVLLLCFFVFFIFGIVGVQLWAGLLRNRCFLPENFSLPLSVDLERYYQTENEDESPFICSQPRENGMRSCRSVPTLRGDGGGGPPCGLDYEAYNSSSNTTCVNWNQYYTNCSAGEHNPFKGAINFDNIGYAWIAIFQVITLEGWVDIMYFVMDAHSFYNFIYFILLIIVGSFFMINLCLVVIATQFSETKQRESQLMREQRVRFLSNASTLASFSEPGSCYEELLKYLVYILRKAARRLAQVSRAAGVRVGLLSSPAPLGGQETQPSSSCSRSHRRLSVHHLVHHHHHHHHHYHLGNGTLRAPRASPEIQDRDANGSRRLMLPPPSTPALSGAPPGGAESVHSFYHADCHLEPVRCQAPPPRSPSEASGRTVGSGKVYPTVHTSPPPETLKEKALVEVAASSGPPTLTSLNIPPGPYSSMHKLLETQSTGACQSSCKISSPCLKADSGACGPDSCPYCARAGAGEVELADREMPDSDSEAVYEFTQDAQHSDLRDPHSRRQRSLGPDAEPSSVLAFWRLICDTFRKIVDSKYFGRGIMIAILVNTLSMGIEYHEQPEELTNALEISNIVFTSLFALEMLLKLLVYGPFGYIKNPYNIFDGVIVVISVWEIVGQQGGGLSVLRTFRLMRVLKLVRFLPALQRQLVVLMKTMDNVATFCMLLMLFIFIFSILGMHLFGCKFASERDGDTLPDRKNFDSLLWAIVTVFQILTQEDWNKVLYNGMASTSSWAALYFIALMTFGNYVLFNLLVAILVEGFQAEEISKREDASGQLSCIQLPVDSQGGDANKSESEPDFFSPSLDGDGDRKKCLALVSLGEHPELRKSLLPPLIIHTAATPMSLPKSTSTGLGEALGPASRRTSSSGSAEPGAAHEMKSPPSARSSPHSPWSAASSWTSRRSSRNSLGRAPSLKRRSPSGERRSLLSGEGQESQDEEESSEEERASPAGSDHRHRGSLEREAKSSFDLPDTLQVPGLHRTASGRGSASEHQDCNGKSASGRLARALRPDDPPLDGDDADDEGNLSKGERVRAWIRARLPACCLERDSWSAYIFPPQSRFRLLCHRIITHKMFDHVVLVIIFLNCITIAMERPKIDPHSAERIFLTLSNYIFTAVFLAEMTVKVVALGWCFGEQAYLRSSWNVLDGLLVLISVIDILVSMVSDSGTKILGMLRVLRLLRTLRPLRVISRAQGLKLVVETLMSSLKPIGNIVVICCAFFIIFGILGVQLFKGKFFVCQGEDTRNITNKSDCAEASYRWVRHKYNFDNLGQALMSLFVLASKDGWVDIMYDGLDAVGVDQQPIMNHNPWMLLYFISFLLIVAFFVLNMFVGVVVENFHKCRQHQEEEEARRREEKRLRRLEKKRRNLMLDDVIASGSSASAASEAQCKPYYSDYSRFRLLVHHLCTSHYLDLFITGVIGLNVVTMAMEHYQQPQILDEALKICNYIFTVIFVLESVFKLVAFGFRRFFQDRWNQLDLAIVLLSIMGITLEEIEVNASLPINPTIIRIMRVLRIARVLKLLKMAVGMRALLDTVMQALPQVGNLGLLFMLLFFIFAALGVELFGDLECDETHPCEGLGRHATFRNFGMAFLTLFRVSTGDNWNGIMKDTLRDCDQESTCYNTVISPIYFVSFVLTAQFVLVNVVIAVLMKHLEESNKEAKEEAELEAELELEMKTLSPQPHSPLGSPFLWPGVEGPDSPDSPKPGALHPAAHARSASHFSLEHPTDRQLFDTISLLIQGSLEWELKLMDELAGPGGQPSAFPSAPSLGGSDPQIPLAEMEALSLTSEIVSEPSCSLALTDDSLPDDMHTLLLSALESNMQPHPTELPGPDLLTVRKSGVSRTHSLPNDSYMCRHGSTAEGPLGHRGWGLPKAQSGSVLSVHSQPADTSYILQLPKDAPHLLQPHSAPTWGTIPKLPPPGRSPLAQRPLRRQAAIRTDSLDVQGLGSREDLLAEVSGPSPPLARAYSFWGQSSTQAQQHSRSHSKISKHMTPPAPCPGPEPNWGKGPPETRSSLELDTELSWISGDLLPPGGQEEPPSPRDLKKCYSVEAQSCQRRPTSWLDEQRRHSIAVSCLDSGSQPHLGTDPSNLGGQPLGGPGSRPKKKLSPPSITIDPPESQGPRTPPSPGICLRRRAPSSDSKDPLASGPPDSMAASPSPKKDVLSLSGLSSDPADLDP
- assay summary: T-type Ca2+ channel blocking activity in HEK293 cells, whole-cell patch clamp
- applied conditions: HEK293 cells expressing α1G; whole-cell patch clamp, -100 mV to -30 mV
Note to self: IC50 under 900 nM means Y, ties and anything higher get N.

smiles entry: CCCc1cc(CNCCN2CCN(c3cccc(C)c3C)CC2)nn1-c1ccccc1
category label: Y

smiles entry: CCCc1cc(CNCCN2CCN(c3cccc(C)c3C)CC2)nn1C(C)(C)C
category label: N

smiles entry: CCCc1cc(CNCCN2CCN(c3ccc([N+](=O)[O-])cc3)CC2)nn1-c1ccccc1
category label: Y

smiles entry: Cc1cccc(N2CCN(CCNCc3cc(CC(C)C)n(-c4ccccc4)n3)CC2)c1C
category label: N

Then there is this compound:
Is 900 nM strictly greater than the compound's reported IC50? compound: CCCc1cc(CNCCN2CCN(C(c3ccccc3)c3ccccc3)CC2)nn1C(C)(C)C
N
